Numbers sourced from paper PMC6980694.

Hi there, I'd appreciate the recorded CC50 at 48 h for every entry that follows.
Assay: Cytotoxicity to Vero cells
Type: cell-based
Details: monkey, Vero kidney cells
Quick reminder: number only, in µM, skip the unit.

GET /value?item= "C=C1CC[C@@H]2[C@](C)(CO)[C@H](O)CC[C@@]2(C)[C@@H]1C/C=C1/C(=O)OC[C@H]1Oc1ccnc2ccccc12" &field=CC50 at 48 h returns 22.3

GET /value?item= C=C1CC[C@@H]2[C@](C)(CO)[C@H](O)CC[C@@]2(C)[C@@H]1C/C=C1/C(=O)OC[C@H]1Oc1c(Cl)cc(Cl)c2cccnc12 [Compound 16b] &field=CC50 at 48 h returns 58.6
